Just for reference, a melting point compilation (Tetko et al.) is where these values come from.

quantity: melting point

# melting point of "NCC1(Nc2ccccc2)CCCCC1" = 61 to 63 °C

# melting point of "Nc1nnc(C(=O)NCc2ccccc2)[nH]1" = 248 to 250 °C

# melting point of "CCCCNc1nnc(C)c2ccccc12" = 74 to 76 °C

# melting point of "Cc1nnc(CN)s1" = 76 to 78 °C

# melting point of "Cc1cc(Br)cc(C)c1S(=O)(=O)Cl" = 49 to 51 °C

# melting point of CC1(c2ccc(OC(F)(F)F)cc2)NC(=O)NC1=O (stereo not given) = 151 to 153 °C

# melting point of "CCCCCc1cc(N)on1" = 40 to 42 °C

# melting point of "COc1cc(C(C)=O)ccc1SCC(=O)O" = 134 to 136 °C

# melting point of O=C(CC1SC(N2CCCCC2)=NC1=O)Nc1cccc(C(=O)O)c1 (stereo not given) = 188 to 190 °C

# melting point of "O=S(=O)(Cl)c1ccc(-n2cnnn2)cc1" = 179 to 181 °C

# melting point of ClC(c1ccccc1)c1nc(-c2ccccc2)no1 (stereo not given) = 74 to 76 °C

# melting point of "CC(C)(C)OC(=O)NCc1cn[nH]c1" = 104 to 106 °C

# melting point of "CC(C)NC(=O)Cc1ccc(N)cc1" = 153 to 155 °C

# melting point of "Nc1cnc(Br)c(Br)c1" = 106 to 108 °C

# melting point of "CC(C)(C)OC(=O)N1CCC(Oc2ccccc2)(C(=O)O)CC1" = 103 to 105 °C

# melting point of OC1CCCc2nc(-c3ccccc3)sc21 (stereo not given) = 96 to 98 °C

# melting point of "O=C(O)c1nn(-c2ccccc2)cc1O" = 154 to 156 °C

# melting point of "Cn1cc(C=O)c(-c2ccc(C#N)cc2)n1" = 156 to 158 °C

# melting point of "O=[N+]([O-])c1cc(S(=O)(=O)Cl)c(Cl)cc1F" = 41 to 43 °C

# melting point of "Cc1cc2ncc(S(C)(=O)=O)c(N)n2n1" = 208 to 210 °C

----------
quantity: melting point

# melting point of "O=C(O)c1cccnc1N1CCN(Cc2cccc(Cl)c2)CC1" = 188 to 190 °C

# melting point of "O=c1cc(CCl)c2ccc(O)cc2o1" = 135 to 137 °C

# melting point of "CC(=O)Nc1cc(C#N)ccc1S(C)(=O)=O" = 145 to 147 °C

# melting point of "CCOc1cc(F)ccc1[N+](=O)[O-]" = 31 to 33 °C

# melting point of "COC(=O)CCCc1nnc(N)s1" = 149 to 151 °C

# melting point of "Cc1sc(N)nc1-c1cccc(Cl)c1" = 90 to 94 °C

# melting point of "CCCc1nnn[nH]1" = 63 to 65 °C

# melting point of "Cc1ccc([N+](=O)[O-])c(C)c1S(=O)(=O)Cl" = 62 to 64 °C

# melting point of "O=Cc1cn(-c2ccccc2)nc1-c1ccc(-c2nn(-c3ccccc3)cc2C=O)cc1" = 271 to 273 °C

# melting point of "Cc1cnoc1N" = 59 to 61 °C

----------
Give measured melting point for each item. Keep answers brief.

# melting point of "N#Cc1c[nH]c2ccc(Cl)cc2c1=O" = 381 to 383 °C

# melting point of "CC(C)(C)Nc1nccs1" = 83 to 85 °C

# melting point of "Cc1ccc(C(=O)CCl)s1" = 45 to 47 °C

# melting point of "COC(=O)COc1cc(C(=O)O)ccc1OC" = 144 to 146 °C

# melting point of "COCc1csc(N)n1" = 109 to 111 °C

# melting point of "CC(=O)N1CCN(Cc2ccc(C(=O)O)cc2)CC1" = 229 to 231 °C

# melting point of "CCOC(=O)c1c(N)c(C#N)cn1CCOC" = 99 to 101 °C

# melting point of "O=C(O)c1nn(-c2ccc(F)cc2)ccc1=O" = 240 to 242 °C

# melting point of "CNc1nc(C)cs1" = 69 to 71 °C

# melting point of "COc1ccc(C(C)=O)cc1-c1ccccc1" = 91 to 93 °C

# melting point of "OCc1cccc(OCC(F)(F)F)c1" = 30 to 32 °C

# melting point of "COc1ccc(Cl)c(S(=O)(=O)Cl)c1" = 41 to 43 °C

# melting point of "O=C(O)c1cc(S(=O)(=O)Cl)cc(F)c1F" = 111 to 113 °C

# melting point of "COC(=O)c1ccccc1S(=O)(=O)Nc1ccccc1Cl" = 97 to 99 °C

# melting point of "O=C(O)CCc1nnc(-c2ccccn2)o1" = 191 to 193 °C

# melting point of "CCn1c(N)cc(=O)[nH]c1=O" = 125 to 127 °C

# melting point of "CC(=CC(=O)O)c1ccccc1F" = 101 to 103 °C

# melting point of "O=C(O)c1ccccc1SCc1ccc(Br)cc1" = 233 to 235 °C

# melting point of "COc1ccc(S(N)(=O)=O)c(OC)c1C(=O)O" = 151 to 153 °C

# melting point of "COCc1c(C(=O)O)sc2cccc(F)c12" = 130 to 139 °C

# melting point of "COC(=O)C(=O)CC(=O)c1ccccc1" = 58 to 60 °C

# melting point of "CCOC(=O)c1ccc2nc(CCC(=O)O)c(=O)n(CC)c2c1" = 181 to 185 °C

# melting point of "Nc1ccc2c(N)n[nH]c2c1" = 209 to 211 °C

# melting point of CC(N)c1ccc(N2CCOCC2)cc1 (stereo unspecified) = 61 to 63 °C

# melting point of NC1CCN(C2CCOCC2)C1=O (stereo unspecified) = 50 to 52 °C

# melting point of "Cc1sc2nc(CCCC(=O)O)[nH]c(=O)c2c1C" = 243 to 245 °C

# melting point of "Cc1ccc(-c2cc(N)nc(-c3ccccc3)c2)cc1" = 110 to 112 °C

# melting point of CS(=O)Cc1c(C(=O)O)sc2ccccc12 (stereo unspecified) = 183 to 185 °C

# melting point of "Cc1cccc(C)c1Nc1nnc(S)s1" = 266 to 268 °C

# melting point of CC(CO)NCc1ccccc1Cl (stereo unspecified) = 54 to 56 °C

# melting point of CC1(c2ccc3c(c2)CCC3)NC(=O)NC1=O (stereo unspecified) = 188 to 190 °C

# melting point of "COc1ccc(-n2cc(O)c(C(=O)O)n2)cc1" = 234 to 236 °C

# melting point of "N#Cc1cc(Cl)nc2ccc(Cl)cc12" = 168 to 170 °C

# melting point of "CS(=O)(=O)Nc1cccc(OCCN)c1" = 134 to 136 °C

# melting point of "Cc1c[nH]c(=O)n1-c1ccccc1F" = 211 to 213 °C

# melting point of "N#Cc1cccc(CN2C(=O)CSC2=O)c1" = 112 to 114 °C

# melting point of "NC(=O)C1=CCCC1" = 166 to 168 °C

# melting point of CC(C)(C)OC(=O)N1CCC(c2ccc(C(F)(F)F)cc2)C(N)C1 (stereo unspecified) = 77 to 79 °C

# melting point of "COc1cccc2c1OCC(C(=O)O)=C2" = 239 to 241 °C

# melting point of "O=C(O)c1nn(-c2ccccc2C(F)(F)F)cc1O" = 141 to 145 °C

# melting point of "N#CCC(=O)NC1CC1" = 87 to 90 °C

# melting point of "CC(=O)NCc1ccc(C(=O)CCl)s1" = 143 to 145 °C

# melting point of "CCNC(=O)NCCCO" = 53 to 55 °C

# melting point of CC(c1ccc(F)cc1F)S(N)(=O)=O (stereo unspecified) = 93 to 95 °C

# melting point of "Nc1cc(-c2ccncc2)n[nH]1" = 194 to 196 °C

# melting point of "O=C(O)c1cccc(NS(=O)(=O)c2cccs2)c1" = 197 to 199 °C

# melting point of "O=C(O)c1ccc(Sc2ccccn2)cc1" = 179 to 181 °C

# melting point of O=C(O)C1CCCN1C1CCNCC1 (stereo unspecified) = 197 to 199 °C

# melting point of O=C1CCCC(C(F)(F)F)N1 (stereo unspecified) = 123 to 125 °C

# melting point of "O=Cc1ccc(-c2ccc(Cl)c(Cl)c2)s1" = 126 to 128 °C

# melting point of "O=C(O)c1cc(Cl)nc(Cl)n1" = 114 to 116 °C
